Biological target: Histamine H4 receptor (Homo sapiens, UniProt Q9H3N8)
Sequence (Q9H3N8 whole entry): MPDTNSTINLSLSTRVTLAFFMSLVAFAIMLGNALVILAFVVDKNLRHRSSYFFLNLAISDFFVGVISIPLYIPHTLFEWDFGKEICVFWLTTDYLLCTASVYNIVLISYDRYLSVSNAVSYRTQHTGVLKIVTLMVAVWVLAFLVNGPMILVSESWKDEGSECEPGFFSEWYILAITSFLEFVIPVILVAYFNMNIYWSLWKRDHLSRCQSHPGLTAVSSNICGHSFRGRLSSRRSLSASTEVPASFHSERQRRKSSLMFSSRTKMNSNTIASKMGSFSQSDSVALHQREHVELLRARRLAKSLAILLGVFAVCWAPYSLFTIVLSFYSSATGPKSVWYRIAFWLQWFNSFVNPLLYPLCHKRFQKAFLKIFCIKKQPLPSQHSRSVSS
Assay: Displacement of [3H]-Histamine from human histamine 4 receptor transfected in HEK293T cells incubated for 16 hrs by liquid scintillation counter analysis
pKi: −log10 of the molar value.
Below is a list of entries, each paired with its recorded pKi value.

Some compounds with recorded pKi:
CN1CCN(CC2Cc3cc(C(C)(C)C)ccc3O2)CC1 (configuration not stated) : < 5.00
C=CCN1CCN(CC2Cc3cc(OC)ccc3O2)CC1 (configuration not stated) : < 5.00
CN1CCN(Cc2cc3ccccc3o2)CC1 : < 5.00

Asked: Dear colleague, please send me the reported pKi for CN1CCN(CC2Cc3cc(-c4ccccc4)ccc3O2)CC1 (configuration not stated) when you can.
Given back: < 5.00

###

Biological target: Histamine H3 receptor (Homo sapiens)
Experiment: Displacement of [3H]-Histamine from human histamine 3 receptor transfected in HEK293T cells incubated for 16 hrs by liquid scintillation counter analysis
Readout: pKi
The value called pKi is obtained by taking minus log10 of the concentration in mol/L.

For orientation, consider the following solved cases.
c1ccc(-c2ccc3c(c2)CC(CN2CCNCC2)O3)cc1 (configuration not stated) : 6.20
CN1CCN(CC2Cc3cc(Cl)ccc3O2)CC1 (configuration not stated) : 6.10
CN1CCN(CC2Cc3cc(-c4ccccc4)ccc3O2)CC1 (configuration not stated) : 7.40
C=CCN1CCN(CC2Cc3cc(-c4ccccc4)ccc3O2)CC1 (configuration not stated) : 8.40
C=CCN1CCN(CC2Cc3cc(C(C)(C)C)ccc3O2)CC1 (configuration not stated) : 7.80

Asked: Identify measured pKi associated with COc1ccc2c(c1)CC(CN1CCN(C)CC1)O2 (configuration not stated)
Given back: 6.10

###

Target: Histamine H3 receptor (Homo sapiens, UniProt Q9Y5N1)
Sequence (Q9Y5N1 whole entry): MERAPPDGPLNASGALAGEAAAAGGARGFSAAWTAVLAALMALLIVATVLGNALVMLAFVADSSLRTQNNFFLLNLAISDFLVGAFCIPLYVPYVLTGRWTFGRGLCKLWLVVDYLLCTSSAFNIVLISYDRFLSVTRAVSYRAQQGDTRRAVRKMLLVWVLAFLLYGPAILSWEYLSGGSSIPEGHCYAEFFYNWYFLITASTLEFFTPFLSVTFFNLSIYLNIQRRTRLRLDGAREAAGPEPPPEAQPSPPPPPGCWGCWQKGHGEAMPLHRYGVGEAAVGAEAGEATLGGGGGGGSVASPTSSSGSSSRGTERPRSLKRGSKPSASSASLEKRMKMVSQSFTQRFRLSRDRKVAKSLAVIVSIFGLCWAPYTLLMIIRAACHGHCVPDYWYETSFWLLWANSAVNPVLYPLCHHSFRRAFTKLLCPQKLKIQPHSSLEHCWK
Assay: Displacement of [3H]-Histamine from human histamine 3 receptor transfected in HEK293T cells incubated for 16 hrs by liquid scintillation counter analysis
# pKi per entry
Please treat pKi as minus the base-10 logarithm of the molar concentration.

Asked: Let me know recorded pKi for C=CCN1CCN(CC2Cc3cc(OC)ccc3O2)CC1 (stereo not drawn) , thanks.
Given back: 8.20

Asked: Please give measured pKi of the following entry: CN1CCN(CC2Cc3cc(C(C)(C)C)ccc3O2)CC1 (stereo not drawn)
Given back: 6.10

###

Biological target: Histamine H4 receptor (Homo sapiens, UniProt Q9H3N8)
Experiment: Displacement of [3H]-Histamine from human histamine 4 receptor transfected in HEK293T cells incubated for 16 hrs by liquid scintillation counter analysis
pKi: −log10 of the molar value.
Collected pKi values appear next to each entry.

COc1ccc2c(c1)CC(CN1CCN(C)CC1)O2 (stereo not drawn) : < 5.00
c1ccc(-c2ccc3c(c2)CC(CN2CCN(c4ccccc4)CC2)O3)cc1 (stereo not drawn) : < 5.00
C=CCN1CCN(CC2Cc3cc(C(C)(C)C)ccc3O2)CC1 (stereo not drawn) : < 5.00
CN1CCN(C(=O)c2cc3ccccc3o2)CC1 : 7.10
c1ccc(-c2ccc3c(c2)CC(CN2CCNCC2)O3)cc1 (stereo not drawn) : < 5.00
CC(C)(C)c1ccc2c(c1)CC(CN1CCN(c3ccccc3)CC1)O2 (stereo not drawn) : < 5.00

Asked: Using the record for C=CCN1CCN(CC2Cc3ccccc3O2)CC1 (stereo not drawn) , state its measured pKi.
Given back: < 5.00

Asked: Provide only the value of recorded pKi for CN1CCN(CC2Cc3cc(Cl)ccc3O2)CC1 (stereo not drawn)
Given back: 6.10
